- target or system: UniProtKB Q92831
- assay name: KAT2B acetyltransferase biochemical assay (RapidFire mass spectrometry, AcCoA to CoA)
- experimental parameters: read-out: KAT2B Ki at 1 μM AcCoA; 1 μM AcCoA, 5 μM H3 1-21 peptide, 0.5 nM KAT2B, 90-minute reaction
Listing of entries alongside the reported pKi.
Quick note: pKi values are minus log10 of concentrations in mol/L.

// below: answered compounds
>  <compound>
CCc1c(F)cccc1-c1cc(C(C)(C)C(=O)NS(=O)(=O)CC)ccc1O[C@@H]1CC[C@@H](NC(=O)[C@@]2(F)CNC3(CCCC3)C2)C1 (single isomer, unassigned) [Example C24]

>  <pKi>
9.66

$$$$
>  <compound>
CCn1cc(-c2ccc(O[C@@H]3CC[C@@H](NC(=O)[C@@]4(F)CNC5(CCC5)C4)C3)c(-c3cccc(F)c3C3CCC3)c2)c(C(=O)O)n1 (single isomer, unassigned) [Example J13]

>  <pKi>
9.21

$$$$

Looking up CC(C)S(=O)(=O)NC(=O)C(C)(C)c1ccc(O[C@@H]2CC[C@@H](NC(=O)[C@]3(F)CNC4(CCC4)C3)C2)c(-c2cccc(F)c2C2CCC2)c1 (single isomer, unassigned) [Example B4] , I see its pKi listed as 9.82

----------
- target or system: KAT2A (Homo sapiens (Human), UniProt Q92830)
- Sequence (Q92830 whole entry): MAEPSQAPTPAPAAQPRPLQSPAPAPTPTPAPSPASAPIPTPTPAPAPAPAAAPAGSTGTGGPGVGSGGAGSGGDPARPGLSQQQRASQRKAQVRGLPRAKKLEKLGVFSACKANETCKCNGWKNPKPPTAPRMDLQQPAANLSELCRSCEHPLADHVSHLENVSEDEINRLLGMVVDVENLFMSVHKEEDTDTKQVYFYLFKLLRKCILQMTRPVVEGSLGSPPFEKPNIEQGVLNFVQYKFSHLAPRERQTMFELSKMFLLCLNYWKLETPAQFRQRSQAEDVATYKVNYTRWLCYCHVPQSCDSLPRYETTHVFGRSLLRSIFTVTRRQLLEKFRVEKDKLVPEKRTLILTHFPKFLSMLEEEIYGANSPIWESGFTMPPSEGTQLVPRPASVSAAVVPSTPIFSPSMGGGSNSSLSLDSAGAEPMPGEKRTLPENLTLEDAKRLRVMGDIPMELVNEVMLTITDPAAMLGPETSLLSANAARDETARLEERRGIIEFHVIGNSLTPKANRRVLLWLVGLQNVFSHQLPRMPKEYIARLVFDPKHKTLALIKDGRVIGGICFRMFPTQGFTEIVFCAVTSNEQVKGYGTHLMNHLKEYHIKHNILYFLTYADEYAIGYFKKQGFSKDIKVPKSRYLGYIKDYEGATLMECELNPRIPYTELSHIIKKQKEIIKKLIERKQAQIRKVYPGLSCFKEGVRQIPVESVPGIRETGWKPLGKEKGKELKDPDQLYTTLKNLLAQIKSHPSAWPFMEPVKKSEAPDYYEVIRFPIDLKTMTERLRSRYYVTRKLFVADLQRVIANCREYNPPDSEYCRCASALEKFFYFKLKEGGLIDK
- assay name: KAT2A acetyltransferase biochemical assay (RapidFire mass spectrometry, AcCoA to CoA)
- experimental parameters: read-out: KAT2A Ki at 1 μM AcCoA, 5 μM H3 1-21 peptide, 0.5 nM KAT2A, 90-minute reaction
pKi: −log10 of the molar value.
Threshold rule: pKi greater than or equal to 9 is label 1; below that, label 0.

Record excerpt, results attached:
>  <compound>
CCS(=O)(=O)NC(=O)Cc1ccc(O[C@@H]2CC[C@@H](NC(=O)C3(F)CNCC4(CCC4)C3)C2)c(-c2cccc(F)c2C2CCC2)c1 (single isomer, unassigned)

>  <cat>
label 1

$$$$
>  <compound>
CC1(C)C[C@H](C(=O)N[C@@H]2CC[C@@H](Oc3cccc(C(=O)O)c3-c3cccc(F)c3C3CCC3)C2)CN1 (atropisomer, axis not shown) [Example H9]

>  <cat>
label 0

$$$$
>  <compound>
CCc1c(F)cccc1-c1cc([C@@H](C)C(=O)NS(=O)(=O)C2(C)CC2)ccc1O[C@@H]1CC[C@@H](NC(=O)[C@@]2(F)CNC3(CCCC3)C2)C1 (single isomer, unassigned) [Example C84]

>  <cat>
label 0

$$$$

Could you tell me if the measured pKi of CC(C)c1c(F)cccc1-c1cc(C(C)(C)C(=O)NS(=O)(=O)C2(C)CC2)ccc1O[C@@H]1CC[C@@H](NC(=O)[C@@]2(F)CNC3(CCC3)C2)C1 (single isomer, unassigned) [Example C42] reaches 9 or more?
label 0

----------
Listing of entries alongside the reported Ki.
- target or system: KAT2B (Homo sapiens (Human))
- Sequence (Q92831 2-832): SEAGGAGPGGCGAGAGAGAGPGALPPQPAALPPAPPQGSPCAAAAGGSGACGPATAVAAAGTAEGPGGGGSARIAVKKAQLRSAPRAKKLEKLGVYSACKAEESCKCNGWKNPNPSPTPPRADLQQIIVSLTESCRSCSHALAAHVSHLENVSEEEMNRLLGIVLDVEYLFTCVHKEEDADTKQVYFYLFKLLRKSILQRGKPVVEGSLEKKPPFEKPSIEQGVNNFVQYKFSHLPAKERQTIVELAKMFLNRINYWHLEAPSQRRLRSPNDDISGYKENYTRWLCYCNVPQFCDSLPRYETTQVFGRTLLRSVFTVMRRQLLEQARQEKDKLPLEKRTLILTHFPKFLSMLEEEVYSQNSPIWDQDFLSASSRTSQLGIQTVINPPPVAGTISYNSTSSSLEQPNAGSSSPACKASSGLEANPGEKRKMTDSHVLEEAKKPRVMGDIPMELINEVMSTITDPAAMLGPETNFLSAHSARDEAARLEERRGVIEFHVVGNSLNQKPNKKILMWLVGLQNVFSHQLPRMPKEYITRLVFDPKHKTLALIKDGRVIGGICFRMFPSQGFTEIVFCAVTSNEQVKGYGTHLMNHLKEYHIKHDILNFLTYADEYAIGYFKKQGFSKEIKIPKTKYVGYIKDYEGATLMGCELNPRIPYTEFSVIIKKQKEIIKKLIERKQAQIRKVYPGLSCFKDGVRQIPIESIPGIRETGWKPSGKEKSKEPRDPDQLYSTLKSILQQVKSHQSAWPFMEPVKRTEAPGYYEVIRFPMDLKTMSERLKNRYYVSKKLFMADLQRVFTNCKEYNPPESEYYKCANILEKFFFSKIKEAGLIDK
- assay name: KAT2B acetyltransferase biochemical assay (RapidFire mass spectrometry, AcCoA to CoA)
- experimental parameters: read-out: KAT2B Ki at 1 μM AcCoA; 1 μM AcCoA, 5 μM H3 1-21 peptide, 0.5 nM KAT2B, 90-minute reaction
Numeric answer only, unit nM assumed.

// below: answered molecules
>  <molecule>
CN(C)S(=O)(=O)NC(=O)C(C)(C)c1ccc(O[C@@H]2CC[C@@H](NC(=O)[C@@]3(F)CNC(C)(C)C3)C2)c(-c2cccc(F)c2C2CCC2)c1 (single isomer, unassigned)

>  <result unit>
nM

>  <Ki>
0.17

$$$$
>  <molecule>
CN1CC(C)(C)C[C@H]1C(=O)N[C@@H]1CC[C@@H](Oc2ccc(CC(=O)O)cc2-c2cccc(F)c2C2CCC2)C1

>  <result unit>
nM

>  <Ki>
22.2

$$$$

Continue with the next molecule.
Looking up CCc1c(F)cccc1-c1cc(C(C)(C)C(=O)NS(C)(=O)=O)ccc1O[C@@H]1CC[C@@H](NC(=O)[C@]2(F)CNC3(CCC3)C2)C1 (single isomer, unassigned) , I see its Ki listed as 0.93

----------
- target or system: KAT2B (Homo sapiens (Human))
- assay name: KAT2B acetyltransferase biochemical assay (RapidFire mass spectrometry, AcCoA to CoA)
measurement label: pKi
Quick note: pKi values are minus log10 of concentrations in mol/L.

Looking up CCS(=O)(=O)NC(=O)C(C)(C)c1ccc(O[C@@H]2CC[C@@H](NC(=O)C3(F)CNC4(CCC4)C3)C2)c(-c2cccc(F)c2C2CCC2)c1 (single isomer, unassigned) , I see its pKi listed as 9.89

Looking up CN1CC2(CCOCC2)C[C@H]1C(=O)N[C@@H]1CC[C@@H](Oc2ccc(C(=O)O)cc2-c2ccccc2C2CCC2)C1 (single isomer, unassigned) [Example D2] , I see its pKi listed as 7.33

Looking up `CN1CC(C)(C)C[C@H]1C(=O)N[C@@H]1CC[C@@H](Oc2ccc(-c3cn(C)nc3C(=O)O)cc2-c2cccc(F)c2C2CCC2)C1` , I see its pKi listed as 9.13

Looking up CC(C)S(=O)(=O)NC(=O)Cc1ccc(O[C@@H]2CC[C@@H](NC(=O)[C@]3(F)CNC4(CCC4)C3)C2)c(-c2cccc(F)c2C2CCC2)c1 (single isomer, unassigned) , I see its pKi listed as 10.15

----------
Listing of entries alongside the reported Ki.
- target or system: KAT2A (Homo sapiens (Human), UniProt Q92830)
- assay name: KAT2A acetyltransferase biochemical assay (RapidFire mass spectrometry, AcCoA to CoA)
- experimental parameters: read-out: KAT2A Ki at 1 μM AcCoA, 5 μM H3 1-21 peptide, 0.5 nM KAT2A, 90-minute reaction
Numeric answer only, unit nM assumed.

Looking up CN1CC2(CCCC2)C[C@H]1C(=O)N[C@@H]1CC[C@@H](Oc2cccc(C(=O)NS(C)(=O)=O)c2-c2cccc(F)c2C2CCC2)C1 (atropisomer, axis not shown) [Example I10] , I see its Ki listed as 6.29

Looking up CN1CC(C)(C)C[C@H]1C(=O)N[C@H]1C[C@H](Oc2cccc(CC(=O)O)c2-c2cccc(F)c2C2CCC2)C[C@H]1O (atropisomer, axis not shown) [Example K6] , I see its Ki listed as 1.13

Looking up Cc1cc(NS(C)(=O)=O)n(-c2ccc(O[C@@H]3CC[C@@H](NC(=O)[C@@H]4CC(C)(C)CN4C)C3)c(-c3cccc(F)c3C3CCC3)c2)n1 [Example L1] , I see its Ki listed as 0.16

----------
- target or system: KAT2A (Homo sapiens (Human))
- assay name: KAT2A acetyltransferase biochemical assay (RapidFire mass spectrometry, AcCoA to CoA)
- experimental parameters: read-out: KAT2A Ki at 1 μM AcCoA, 5 μM H3 1-21 peptide, 0.5 nM KAT2A, 90-minute reaction
Rule for this label: condition met means Ki is less than 7 nM; condition not met means Ki is at least 7 nM.

Record excerpt, results attached:
>  <compound>
CC(C)c1ccccc1-c1c(CC(=O)O)cccc1O[C@@H]1CC[C@@H](NC(=O)[C@@H]2CC(C)(C)CN2C)C1 (atropisomer, axis not shown) [Example H4]

>  <cat>
condition not met

$$$$
>  <compound>
CC(C)S(=O)(=O)NC(=O)C(C)(C)c1ccc(O[C@@H]2CC[C@@H](NC(=O)[C@@]3(F)CNC(C)(C)C3)C2)c(-c2cccc(F)c2C2CCC2)c1 (single isomer, unassigned) [Example B17]

>  <cat>
condition met

$$$$
>  <compound>
CN1CC2(CCCC2)C[C@@H]1C(=O)N[C@@H]1CC[C@@H](Oc2ccc(C(=O)O)cc2-c2ccccc2C2CCC2)C1 (single isomer, unassigned)

>  <cat>
condition met

$$$$
>  <compound>
C[C@H](C(=O)O)c1nn(C)cc1-c1ccc(O[C@@H]2CC[C@@H](NC(=O)[C@]3(F)CNC4(CCC4)C3)C2)c(-c2cccc(F)c2C2CCC2)c1 (single isomer, unassigned) [Example J5]

>  <cat>
condition met

$$$$
>  <compound>
CC(C)(C(=O)NS(C)(=O)=O)c1ccc(O[C@@H]2CC[C@@H](NC(=O)[C@@]3(F)CNC4(CCC4)C3)C2)c(-c2cccc(F)c2C2CC2)c1 (single isomer, unassigned)

>  <cat>
condition not met

$$$$

Consider the compound CCS(=O)(=O)NC(=O)C(C)(C)c1ccc(O[C@@H]2CC[C@@H](NC(=O)[C@@]3(F)CNC4(CCCC4)C3)C2)c(-c2cccc(F)c2C2CCC2)c1 (single isomer, unassigned) [Example B19] . Is its Ki strictly less than 7 nM?
condition not met

Consider the compound C[C@H](C(=O)O)c1ccc(O[C@@H]2CC[C@@H](NC(=O)[C@@H]3CC(C)(C)CN3C)C2)c(-c2cccc(F)c2C2CCC2)c1 (single isomer, unassigned) . Is its Ki strictly less than 7 nM?
condition not met

Consider the compound `CC(C)c1ccccc1-c1cc(CC(=O)O)ccc1O[C@@H]1CC[C@@H](NC(=O)[C@@H]2CC(C)(C)CN2C)C1` . Is its Ki strictly less than 7 nM?
condition not met

Consider the compound CCS(=O)(=O)NC(=O)C(C)(C)c1ccc(O[C@@H]2CC[C@@H](NC(=O)[C@@]3(F)CNC(C)(C)C3)C2)c(-c2cccc(F)c2C2CCC2)c1 (single isomer, unassigned) [Example B13] . Is its Ki strictly less than 7 nM?
condition met

Consider the compound CCc1c(F)cccc1-c1cc(CC(=O)NS(=O)(=O)C2(C)CC2)ccc1O[C@@H]1CC[C@@H](NC(=O)[C@@]2(F)CNCC(C)(C)C2)C1 (single isomer, unassigned) [Example C57] . Is its Ki strictly less than 7 nM?
condition met
